Luciferase Assay Z-score (full-length luciferase counter-screen) for assorted compounds
biological target: full-length P. pyralis luciferase (Photinus pyralis, UniProt P08659, K549A/L550V/N119G/N50D/S548I); type: cell-based; conditions: CC_NCI screening; normalized to on-plate 0.3% DMSO controls
Sequence (P08659 whole entry N50D/N119G/S548I/K549A/L550V, looked up): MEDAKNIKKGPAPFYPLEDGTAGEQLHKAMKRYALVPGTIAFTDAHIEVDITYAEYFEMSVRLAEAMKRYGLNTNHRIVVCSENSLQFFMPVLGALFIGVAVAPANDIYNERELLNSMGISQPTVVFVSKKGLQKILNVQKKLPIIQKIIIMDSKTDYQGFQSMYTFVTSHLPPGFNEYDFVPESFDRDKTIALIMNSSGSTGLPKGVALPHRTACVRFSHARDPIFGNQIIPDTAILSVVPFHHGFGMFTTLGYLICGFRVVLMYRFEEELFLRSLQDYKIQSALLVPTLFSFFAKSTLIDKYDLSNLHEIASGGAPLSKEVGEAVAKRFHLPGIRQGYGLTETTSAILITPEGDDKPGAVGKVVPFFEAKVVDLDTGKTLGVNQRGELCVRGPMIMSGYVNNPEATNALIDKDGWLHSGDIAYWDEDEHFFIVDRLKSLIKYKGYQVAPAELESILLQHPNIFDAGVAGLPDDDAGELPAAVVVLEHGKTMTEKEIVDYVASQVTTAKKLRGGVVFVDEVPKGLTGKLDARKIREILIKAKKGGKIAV
Field format: numeric only.

Solved entries (count: 6):
CCCCCOC(=O)Nc1nc(=O)n([C@@H]2O[C@H](C)[C@@H](O)[C@H]2O)cc1F :: 0.01
COc1cc2c(Nc3ccc(NC(=O)c4ccccc4)cc3)ncnc2cc1OCCCN1CCOCC1 :: -0.23
NS(=O)(=O)c1nn2cc(-c3ccccc3)nc2s1 :: -0.77
CCN(CC)CCCC(C)Nc1nc(C)cc(Nc2ccc3nc(C)cc(N)c3c2)n1 (stereo not drawn) :: 0.79
COc1c2occc2cc2ccc(=O)oc12 :: -0.78
Cc1ccc([N+](=O)[O-])cc1S(=O)(=O)N(C)/N=C/c1cnc2ccc(Br)cn12 [PIK 75, reference compound] :: -1.58

[ask] I would be grateful if you could share the reported Luciferase Assay Z-score (full-length luciferase counter-screen) for O=C1NC(=O)/C(=C/c2ccc3c(c2)OCO3)S1 .
[reply] -1.95

[ask] I would be grateful if you could share the reported Luciferase Assay Z-score (full-length luciferase counter-screen) for Cc1nc2sccn2c(=O)c1CCN1CCC(=C(c2ccccc2)c2ccc(F)cc2)CC1 .
[reply] -5.68

[ask] I would be grateful if you could share the reported Luciferase Assay Z-score (full-length luciferase counter-screen) for COc1cc(N2CCC(N3CCN(C)CC3)CC2)ccc1Nc1ncc(Cl)c(Nc2ccccc2S(=O)(=O)C(C)C)n1 .
[reply] -0.46
